# protocolText: binders of probe aFGF10 on microarray, primary screen, stem cell growth factor project, biochemical, small-molecule microarray, fluorescence 635/667 (AID 1071);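 note: score merges 667 nm spot intensity and signal to noise from triplicate slides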
# testParameters: higher = more signal
Bucketed by reported composite z-score, buckets being group 1 (below 0.2), group 2 (0.2 to below 0.9), group 3 (0.9 or more)

Worked examples follow.
[
  {
    "molecule": "Cc1cc(C)c(C(O)C2C=CC3C(=O)N(C)C(=O)C3N2Nc2ccccc2)c(C)c1 (stereo unspecified)",
    "assignedLabel": "group 3"
  },
  {
    "molecule": "Cc1ccc(S[C@]2(C(=O)O)CC(=O)N(C3Cc4ccccc4C3)[C@@H]2c2ccc(CO)cc2I)cc1",
    "assignedLabel": "group 1"
  },
  {
    "molecule": "CCCC[C@H]1OB(O)C[C@H]2C1=C(C)C[C@H]1C(=O)N(Cc3ccccc3)C(=O)[C@H]12",
    "assignedLabel": "group 3"
  },
  {
    "molecule": "O=C1OCC=C[C@H]2OC34C=CCN(c5ccc6ccccc6c5)C(=O)[C@H]3N(CCCO)C(=O)[C@@H]4[C@@H]12 (stereo partly specified)",
    "assignedLabel": "group 1"
  }
]

input: Bin this entry: CC(C)C(O)C1C=CC2C(=O)N(c3ccccc3)C(=O)C2N1Nc1ccc(C#N)cc1 (stereo unspecified)
output: group 3

input: Bin this entry: COc1ccc([Si](C)(C)[C@H]2[C@H](CCn3cc([C@H](O)c4ccccc4)nn3)O[C@@]3(C(=O)N(Cc4cccc(N5CCC5=O)c4)c4ccccc43)[C@@H]2C)cc1
output: group 1

input: Bin this entry: C=C(C(=O)CC[C@H](OC(C)=O)c1ccc(OCCO)cc1)C(C)C
output: group 3

----------
# protocolText: inhibitors of hydroxyurea-induced Chk1 phosphorylation, primary screen, imaging, HeLa, phospho-Chk1 antibody, percent positive cells (AID 1186)
# testParameters: hydroxyurea-induced phospho-Chk1 immunofluorescence imaging, higher = more signal
readoutKind: z-score
Please reply with the value in numeric form only.

Below, each entry is followed by its recorded z-score result.
[
  {
    "compound": "CCOC(=O)C[C@H]1[C@H](OC(=O)c2ccc(C(=O)c3ccccc3)cc2)[C@@H](NC(=O)C2CCCCC2)c2cc(OCCCO)ccc2N1C(=O)c1ccccc1",
    "z-score": 0.454
  },
  {
    "compound": "O=C1C[C@]2(c3ccc([N+](=O)[O-])cc3)C(=O)N(CC(F)(F)F)c3cc(CO)ccc3[C@H]2N1CC12CC3CC(CC(C3)C1)C2",
    "z-score": -0.151
  },
  {
    "compound": "CCCCCN1CC=CC23O[C@@H]4C=CCOC(=O)[C@@H]4[C@H]2C(=O)N(CCCO)[C@@H]3C1=O (stereo partly drawn)",
    "z-score": 0.679
  },
  {
    "compound": "CCCNC(=O)[C@@H]1c2ccccc2C(=O)N(Cc2ccccc2)[C@H]1c1ccc(CO)cc1",
    "z-score": 0.0089
  },
  {
    "compound": "CS(=O)(=O)CCOC(=O)C1=CC(c2ccc(CO)cc2)=CC(C2CC2)N(Cc2cc3c(cc2Br)OCO3)C=C1C(=O)OCCS(C)(=O)=O (stereo not drawn)",
    "z-score": -0.572
  }
]

input: Requested read-out: z-score. Entry: Cc1ccc(S[C@]2(C(=O)NCC(C)C)CC(=O)N(Cc3ccccc3)[C@@H]2c2ccc(CO)cc2I)cc1
output: 0.292

input: Requested read-out: z-score. Entry: COCCCNC(=O)[C@@]1(c2ccc([N+](=O)[O-])cc2)CC(=O)N(CC23CC4CC(CC(C4)C2)C3)[C@@H]1c1ccc(CO)cc1
output: -0.687

input: Requested read-out: z-score. Entry: CC(C)C(=C=CC[C@@H](O)c1ccccc1OCCO)C[C@@H](O)c1ccccn1
output: 0.0231

input: Requested read-out: z-score. Entry: COc1ccccc1CN1C(=O)c2ccccc2[C@@H](C(=O)NCCN2CCOCC2)[C@@H]1c1ccc(CO)cc1
output: 0.193

input: Requested read-out: z-score. Entry: CCOC(=O)C[C@H]1[C@H](OC(=O)c2ccc(-c3ccccc3)cc2)[C@@H](NC(=O)Cc2ccc(OC)cc2)c2cc(OCCCO)ccc2N1C(=O)c1ccc2ccccc2n1
output: -0.42

input: Requested read-out: z-score. Entry: CC(C)(C)N1CC=CC23O[C@@H]4/C=C\CCCOC(=O)C4[C@H]2C(=O)N(CCO)[C@@H]3C1=O (stereo partly drawn)
output: 0.205

input: Requested read-out: z-score. Entry: O=C1C2C=CC(C(O)c3cccs3)N(Nc3ccccc3F)C2C(=O)N1c1ccccc1 (stereo not drawn)
output: -0.143

input: Requested read-out: z-score. Entry: [N-]=[N+]=NCc1ccccc1[C@@H]1OC(c2ccc(OCCCO)cc2)=N[C@]1(Cc1ccccc1)C(=O)N1CCCCC1
output: -0.837

----------
# measuredOn: Albumin (Bos taurus)
# protocolText: bovine serum albumin binders on microarray, profiling panel, artefact control for SMM control protein annotation, biochemical, small-molecule microarray, Alexa647 label, 635/667 nm fluorescence (AID 1118);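 note: score merges 667 nm emission intensity and signal-to-noise per printed compound spot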
# testParameters: BSA-A647 binding, fluorescence 635 nm, higher = more signal
readoutKind: composite z-score
Please reply with the value in numeric form only.

Below, each entry is followed by its recorded composite z-score result.
[
  {
    "molecule": "CC(C)N1C(=O)c2ccccc2[C@@H](C(=O)NCCCN(C)C)[C@@H]1c1ccc(CO)cc1",
    "composite z-score": 0.955
  },
  {
    "molecule": "O=C1C2C=CC(C(O)c3ccc(F)cc3)N(Nc3ccccc3)C2C(=O)N1c1ccccc1 (stereo not given)",
    "composite z-score": 0.843
  }
]

input: Requested read-out: composite z-score. Entry: C=CC(COC(C)=O)NS(=O)(=O)c1ccc(Br)cc1 (stereo not given)
output: -0.68

input: Requested read-out: composite z-score. Entry: O=C1c2ccccc2[C@@]2(Cc3ccccc3N(Cc3ccccc3)C2=O)[C@H](c2ccc(CO)cc2)N1C1CCCCC1
output: -0.841

input: Requested read-out: composite z-score. Entry: COC(=O)[C@@]1(Cc2ccccc2)[C@H]2c3cc(C(=O)N4CCCC4)n(C)c3C[C@H]2CN1C(=O)c1ccccc1
output: 1.06

----------
# measuredOn: Pro-neuregulin-1, membrane-bound isoform (Homo sapiens) (UniProt Q02297)
# Sequence (Q02297 whole entry, looked up, canonical isoform): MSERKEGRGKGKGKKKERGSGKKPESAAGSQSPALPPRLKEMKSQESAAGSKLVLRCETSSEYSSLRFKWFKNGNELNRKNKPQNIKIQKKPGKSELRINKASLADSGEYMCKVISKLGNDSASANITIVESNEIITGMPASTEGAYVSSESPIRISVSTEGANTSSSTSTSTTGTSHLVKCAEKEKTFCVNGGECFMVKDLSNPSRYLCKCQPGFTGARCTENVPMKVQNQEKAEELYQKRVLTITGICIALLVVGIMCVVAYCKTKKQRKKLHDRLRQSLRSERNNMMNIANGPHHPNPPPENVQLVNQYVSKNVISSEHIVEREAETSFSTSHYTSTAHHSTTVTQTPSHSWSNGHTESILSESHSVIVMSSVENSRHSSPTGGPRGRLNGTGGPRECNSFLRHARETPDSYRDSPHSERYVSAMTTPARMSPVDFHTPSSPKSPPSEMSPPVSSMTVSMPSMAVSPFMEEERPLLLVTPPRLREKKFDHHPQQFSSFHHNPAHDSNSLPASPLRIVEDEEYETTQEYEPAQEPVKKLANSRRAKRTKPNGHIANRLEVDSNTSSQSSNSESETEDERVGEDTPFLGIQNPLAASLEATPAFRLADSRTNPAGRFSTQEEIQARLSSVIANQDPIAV
# protocolText: NRG1 binders on small-molecule microarrays, primary screen, psychiatric disease protein project, biochemical, small-molecule microarray, fluorescence 635/667 (AID 1075);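 note: score combines 667 nm spot fluorescence with signal to noise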
# testParameters: NRG1 binding, 635 nm fluorescence, higher = more signal
Reported values of composite z-score for individual entries
Please reply with the value in numeric form only.

Below, each entry is followed by its recorded composite z-score result.
[
  {
    "compound": "O=C1O[C@@H](c2ccccc2)[C@@H](c2ccccc2)N2[C@@H](c3ccc(OCCO)cc3)[C@]3(C(=O)Nc4ccc(C#CC5=CCCCC5)cc43)[C@@H](C(=O)O)[C@H]12",
    "measuredOn": "Pro-neuregulin-1, membrane-bound isoform (Homo sapiens) (UniProt Q02297)",
    "testResult": 1.59
  },
  {
    "compound": "CC(C)(C)OC(=O)CC[C@]1(C(=O)N2CCCCC2)N=C(c2ccc(OCCCO)cc2)O[C@H]1c1ccccc1N=[N+]=[N-]",
    "measuredOn": "Pro-neuregulin-1, membrane-bound isoform (Homo sapiens) (UniProt Q02297)",
    "testResult": 1.42
  },
  {
    "compound": "COCCOC(=O)N1C(=O)[C@@]2(c3cc(C#CCCO)ccc31)[C@H](c1ccc(O)cc1)N1[C@H](c3ccccc3)[C@H](c3ccccc3)OC(=O)[C@H]1[C@@H]2C(N)=O",
    "measuredOn": "Pro-neuregulin-1, membrane-bound isoform (Homo sapiens) (UniProt Q02297)",
    "testResult": 1.08
  },
  {
    "compound": "COC(=O)[C@@]1(Cc2ccc(OC)cc2)[C@H]2c3cc(C(=O)N(C)C)n(Cc4c(OC)[nH]cc(C)c4=O)c3C[C@H]2CN1C(=O)c1ccccc1",
    "measuredOn": "Pro-neuregulin-1, membrane-bound isoform (Homo sapiens) (UniProt Q02297)",
    "testResult": 1.92
  }
]

input: Requested read-out: composite z-score. Entry: COc1ccc(C(O)C2C=CC3C(=O)N(C)C(=O)C3N2Nc2ccccc2)cc1OCc1ccccc1 (stereo unspecified)
output: 1.94

input: Requested read-out: composite z-score. Entry: CCOC(=O)C[C@H]1[C@H](OC(=O)Cc2ccc3c(c2)OCO3)[C@@H](NC(=O)c2ccc(-c3ccccc3)cc2)c2cc(OCCCO)ccc2N1C(=O)c1ccccc1
output: 0.371

input: Requested read-out: composite z-score. Entry: CCCN1C(=O)[C@]2(COC(c3ccc(OCCCO)cc3)=N2)Cc2ccccc21
output: 1.41
